B1: Azoarcus group I ribozyme (parent)
chain: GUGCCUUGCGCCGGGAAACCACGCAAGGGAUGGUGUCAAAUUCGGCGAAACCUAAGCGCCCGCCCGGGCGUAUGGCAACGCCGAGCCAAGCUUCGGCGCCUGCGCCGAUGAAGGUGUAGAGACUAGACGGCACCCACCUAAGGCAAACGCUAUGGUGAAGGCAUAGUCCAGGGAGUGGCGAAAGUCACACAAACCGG

- Variants of: B1
- Test: reverse-splicing fitness (ratio to wild type); higher = more active; in vitro selection; Mg2+ level not given
Entries and their measured reverse-splicing fitness follow.
Just the number.

>>> df
                  variant_string           reported_metric  quantitative_readout
0  A111U A120C C150G C169U U176G  reverse-splicing fitness               0.00475

Item: C82G A111U A120G A145G C169G U176G | reverse-splicing fitness: 0.00429

reverse-splicing fitness measured on C82A A111G A120U A145G C150A C169A U176C = 0.0046

GET /value?item= C82G A111U A120G A145U C169A U176A &field=reverse-splicing fitness returns 0.0133
